- measurementTarget: T1, human MSLN-R2-his protein (human, UniProt Q13421 391-486)
- T1 construct: Region 2 of human mesothelin, made in HEK293E cells, His-tagged; also called human MSLN-R2 protein; hMSLN-R2-his; not shown: His tag
- T1 sequence (Q13421 other isoform, or with tags, fused parts or gaps): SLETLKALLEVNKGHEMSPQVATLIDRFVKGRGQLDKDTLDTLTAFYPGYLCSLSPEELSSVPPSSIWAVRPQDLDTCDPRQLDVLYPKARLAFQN
- assayText: ELISA on coated MSLN-R2; antibody 1 nM
# OD450 per record follows

[
  {
    "binder": "S009-F8-31.22 (antibody, human IgG1, kappa, V domains shown) VH: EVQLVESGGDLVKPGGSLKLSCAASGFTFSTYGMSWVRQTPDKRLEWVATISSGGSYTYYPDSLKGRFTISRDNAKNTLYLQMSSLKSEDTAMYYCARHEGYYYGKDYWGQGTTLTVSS VL: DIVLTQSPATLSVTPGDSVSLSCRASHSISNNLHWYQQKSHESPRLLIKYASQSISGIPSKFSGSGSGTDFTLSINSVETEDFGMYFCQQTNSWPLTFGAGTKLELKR",
    "measurementUnits": "OD450",
    "OD450": 0.04
  },
  {
    "binder": "S009-F8-22.23 (antibody, human IgG1, kappa, V domains shown) VH: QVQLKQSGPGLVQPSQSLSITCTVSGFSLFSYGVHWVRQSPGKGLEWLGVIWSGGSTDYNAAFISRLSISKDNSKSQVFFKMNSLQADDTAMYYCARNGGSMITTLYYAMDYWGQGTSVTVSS VL: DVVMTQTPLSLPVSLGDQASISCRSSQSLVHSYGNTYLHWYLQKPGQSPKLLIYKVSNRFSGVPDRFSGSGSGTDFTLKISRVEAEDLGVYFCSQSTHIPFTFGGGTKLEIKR",
    "measurementUnits": "OD450",
    "OD450": 0.08
  },
  {
    "binder": "S009-F8-36.12 (antibody, human IgG1, kappa, V domains shown) VH: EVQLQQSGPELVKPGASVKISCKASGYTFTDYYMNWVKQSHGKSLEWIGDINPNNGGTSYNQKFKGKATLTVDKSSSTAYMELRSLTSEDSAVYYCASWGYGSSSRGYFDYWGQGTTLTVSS VL: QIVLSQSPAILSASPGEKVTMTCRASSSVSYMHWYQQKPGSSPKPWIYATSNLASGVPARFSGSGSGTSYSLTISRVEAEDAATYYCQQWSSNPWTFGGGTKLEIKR",
    "measurementUnits": "OD450",
    "OD450": 0.04
  },
  {
    "binder": "S009-F8-7.5 (antibody, human IgG1, kappa, V domains shown) VH: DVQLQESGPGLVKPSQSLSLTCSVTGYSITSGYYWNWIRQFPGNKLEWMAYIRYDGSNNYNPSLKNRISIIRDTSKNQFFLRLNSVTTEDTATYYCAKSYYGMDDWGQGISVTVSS VL: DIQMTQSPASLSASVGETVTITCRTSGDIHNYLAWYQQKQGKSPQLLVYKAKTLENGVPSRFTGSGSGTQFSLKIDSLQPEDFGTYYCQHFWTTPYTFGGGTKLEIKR",
    "measurementUnits": "OD450",
    "OD450": 1.85
  }
]
